- RUN_DESCRIPTION: BET inhibitor-based combinations targeting novel dependencies in MECOM-rearranged (r) AML: AML-194 cell line (AID 2202237; also: nearly all actives have a fitted effect of over 40% in size)
- TEST_CONDITIONS: AML-194 (MECOM-r AML) viability, CellTiter-Glo, 48 h; series mostly up to 46 µM
Inconclusive results are not listed. Activity calls are given as the source filed them. Calls follow the shape of the dose curve; as a rule, active = well fitted inhibition curve with a large enough effect; inconclusive = small, poorly fitted or top-dose-only effect; inactive = flat fitted curve, though single readings scatter.
Select the matching outcome among true (1) for active, false (0) for inactive

Qu. Would you mind telling me which call this test gave CCN(c1cc(-c2ccc(CN3CCOCC3)cc2)cc(C(=O)NCc2c(C)cc(C)[nH]c2=O)c1C)C1CCOCC1 ?
Ans. false (0)

Qu. Would you mind telling me which call this test gave CN(C)c1ccc2nc3ccc(=[N+](C)C)cc-3sc2c1 ?
Ans. true (1)

Qu. Would you mind telling me which call this test gave O=C(O)c1ccc(CCCc2ccc(OCCc3ccc(F)cc3)cc2)o1 ?
Ans. false (0)

Qu. Would you mind telling me which call this test gave COc1ccccc1N1CCN(CCN(C(=O)C2CCCCC2)c2ccccn2)CC1 ?
Ans. false (0)

Qu. Would you mind telling me which call this test gave COc1ccc2c3n(c(=NC(=O)c4cccnc4)nc2c1OC)CCN3 ?
Ans. true (1)

====

- RUN_DESCRIPTION: BET inhibitor-based combinations targeting novel dependencies in MECOM-rearranged (r) AML: AML-194 cell line (AID 2202237)
- TEST_CONDITIONS: AML-194 (MECOM-r AML) viability, CellTiter-Glo, 48 h; series mostly up to 46 µM
Results filed as inconclusive are left out. Calls of active or inactive are those of the source. The call rests on the fitted dose curve; in most records, active means well fitted inhibition curve with a large enough effect; inconclusive means small, poorly fitted or top-dose-only effect; inactive means flat fitted curve, though single readings scatter.
Select the matching outcome among active, inactive

Qu. Would you mind telling me which call this test gave COc1ccc(-n2c(C)c([N+](=O)[O-])c3ccc(O)cc32)cc1 ?
Ans. inactive

Qu. Would you mind telling me which call this test gave Cc1cnc(Nc2ccc(F)cc2Cl)nc1-c1c[nH]c(C(=O)N[C@H](CO)c2cccc(Cl)c2)c1 ?
Ans. active

Qu. Would you mind telling me which call this test gave Cc1cccc(-c2nn3c(c2-c2ccnc4ccc(C(N)=O)cc24)CCC3)n1 ?
Ans. inactive

Qu. Would you mind telling me which call this test gave COC(=O)N1CCN(Cc2cccc(NC(=O)Nc3ccc(C)nc3)c2F)CC1 ?
Ans. inactive

Qu. Would you mind telling me which call this test gave COC(=O)N(C)c1c(N)nc(-c2nn(Cc3ccccc3F)c3ncccc23)nc1N ?
Ans. inactive

Qu. Would you mind telling me which call this test gave CN(C)Cc1c(C(=O)NCCOc2ccc(C(=O)NO)cc2)oc2ccccc12 ?
Ans. active

Qu. Would you mind telling me which call this test gave Cc1ccc(Nc2nccc(N(C)c3ccc4c(C)n(C)nc4c3)n2)cc1S(N)(=O)=O ?
Ans. active

Qu. Would you mind telling me which call this test gave CC(C)(C)NC(=O)[C@H]1CC[C@H]2[C@@H]3CC[C@H]4NC(=O)C=C[C@]4(C)[C@H]3CC[C@]12C ?
Ans. inactive

Qu. Would you mind telling me which call this test gave Clc1ccc(C(c2ccc(Cl)cc2)n2cc[n+](CC(OCc3ccc(Cl)cc3Cl)c3ccc(Cl)cc3Cl)c2)cc1 (centres undefined) ?
Ans. active

====

- RUN_DESCRIPTION: BET inhibitor-based combinations targeting novel dependencies in MECOM-rearranged (r) AML: AML-191 cell line (AID 2202236; also: nearly all actives have a fitted effect of over 35% in size; also: potency is read from the fitted curve at half-maximal effect)
- TEST_CONDITIONS: AML-191 viability, CellTiter-Glo luminescence, 48 h; series mostly up to 46 µM
Inconclusive results are not listed. The source made the active and inactive calls. The call rests on the fitted dose curve; in most records, active means well fitted inhibition curve with a large enough effect; inconclusive means small, poorly fitted or top-dose-only effect; inactive means flat fitted curve, though single readings scatter.
QUANTITY: Potency

Consider the worked cases shown below.
1. COc1ccc(-n2c(SCCCN3C(=O)c4cccc5cccc(c45)C3=O)nnc2-c2ccncc2)cc1: inactive
2. O=C(Nc1ccc(OC(F)(F)F)cc1)c1sccc1NCc1ccnc2ccccc12: 8.33 µM (active)
3. COc1c(N2CCNC(C)C2)c(F)cc2c(=O)c(C(=O)O)cn(C3CC3)c12 (stereo not given): inactive
4. O=C(O)CSCC(=O)NC1CCSC1=O (stereo not given): inactive
5. COC[C@H](NC(=O)c1cnc(C)s1)C(=O)N[C@@H](COC)C(=O)N[C@@H](Cc1ccccc1)C(=O)[C@@]1(C)CO1: 0.186 µM (active)
6. O=C(Nc1ncc(-c2cc(C(F)F)nn2-c2c(Cl)cccc2Cl)s1)C1CC1: 0.934 µM (active)
7. Cn1cc(-c2ccc(F)c(C(F)(F)F)c2)nc1C1CCN(c2ncnc3[nH]ncc23)CC1: 20.9 µM (active)
8. CCC(C)(Oc1ccc(C2(c3ccc(OC(C)(CC)C(=O)O)cc3)CCCCC2)cc1)C(=O)O (stereo not given): inactive

Qu. So what's the measured Potency for this one? COc1ccc(-n2c(C)c([N+](=O)[O-])c3ccc(O)cc32)cc1
Ans. 6.61 µM (active)

Source of measurements: PubChem BioAssay (NCATS)
